Entry source: PubChem BioAssay AID1053120

- test: glycosylation-insensitive luciferase reporter activation – D54 LucT cells, dry powder, set 2, counter-screen for N-linked glycosylation inhibitor project, dose response (AID 1053120)
- condition-details: D54 LucT luciferase reporter (no NLG), luminescence, 24 h; at 19.5 µM (top of the series)
experimental-endpoint: luciferase activation (%)
One number for each entry, in %.

Some molecules with recorded luciferase activation:
molecule=CC(=O)N1CCC(=O)c2cc3ccccc3cc21 result_units=% measurement=33.3
molecule=Cc1csc(NC(=O)c2cc(S(=O)(=O)N(C)C)ccc2N2CCCC2)n1 result_units=% measurement=50

Provide each entry's luciferase activation from the list below.
1. COc1cccc(N2CCN(C(=O)c3ccc(CS(=O)c4ccc(C)cc4)o3)CC2)c1 (stereo unspecified)
2. Cc1[nH][nH]c(=O)c1C(c1ccc(-c2ccc(Cl)c(Cl)c2)o1)c1c(C)[nH][nH]c1=O
3. CN(C)CCCN(Cc1cc2ccccc2[nH]c1=O)C(=O)Nc1ccccc1
4. C/C(=N\NC(=O)c1c([N+](=O)[O-])c(C)nn1C)c1ccc(NC(=O)C2CCCC2)cc1
5. CCOc1ccc(NC(=O)c2cc(OC)nc3ccccc23)cc1

Result:
0
0
20
0
0

Please state luciferase activation for every molecule in the list that follows.
1. CN(C)S(=O)(=O)c1ccc(N2CCCC2)c(C(=O)Nc2ccccc2)c1
2. O=C1CCNc2cc3ccccc3cc21
3. Brc1ccc(CSc2nnc(-c3ccccc3)o2)cc1
4. Cc1cnc(NC(=O)c2cc(S(=O)(=O)N(C)C)ccc2N2CCC2)s1

Result:
1: 20; 2: -66.7; 3: 0; 4: -20

====

- test: glycosylation-insensitive luciferase reporter activation – D54 LucT cells, dry powder, set 2, counter-screen for N-linked glycosylation inhibitor project, dose response (AID 1053120)
- condition-details: D54 LucT luciferase reporter (no NLG), luminescence, 24 h; at 19.5 µM (top of the series)
Give luciferase activation for every item shown.
Give bare numbers, in %.

Consider the worked cases shown below.
compound=COc1ccc2nc(NC(=O)c3cc(S(=O)(=O)N(C)C)ccc3N3CCCC3)sc2c1 measurement=0
compound=Cc1cc(C)cc(C(=O)N2CC(=O)Nc3ccccc32)c1 measurement=33.3
compound="CCCCOc1ccccc1C1CC(=O)NC2=C1C(=O)CCC2 (stereo unspecified)" measurement=0
compound=COc1cccc2sc(NC(=O)c3cc(S(=O)(=O)N(C)C)ccc3N3CCCC3)nc12 measurement=-50
compound=COc1cc(Nc2c3c(nc4ccccc24)CCCC3)cc(OC)c1OC measurement=0

Task: Which luciferase activation is reported for this compound? CN(C)S(=O)(=O)c1ccc(N2CCCC2)c(C(=O)Nc2nccs2)c1
Result: 20

====

- test: glycosylation-insensitive luciferase reporter activation – D54 LucT cells, dry powder, set 2, counter-screen for N-linked glycosylation inhibitor project, dose response (AID 1053120)
- condition-details: D54 LucT luciferase reporter (no NLG), luminescence, 24 h; at 19.5 µM (top of the series)
Parameter threshold = -30%. Response is true when luciferase activation meets or exceeds it, else false.

Solved cases (6 shown):
molecule=CCN(CC)CCC(=O)Nc1cccc2c1C(=O)c1ccccc1C2=O category=false
molecule=CCN(CC)CCCNc1nc2cc(OC)c(OC)cc2c2nc(-c3ccccc3)nn12 category=false
molecule=COc1ccc(CSc2nnc(-c3ccccc3)o2)cc1 category=true
molecule=CCOc1ccc(S(=O)(=O)NCc2ccccn2)cc1NC(=O)c1ccccc1F category=true
molecule=Cc1ccc(NC(=O)c2cc(S(=O)(=O)N(C)C)ccc2N2CCCC2)cc1 category=true
molecule=COc1ccccc1OCC(=O)NNC(=O)c1ccoc1C category=true

Task: Test whether the molecule CC(=O)c1cccc(NC(=O)CSc2ncc(C(=O)Nc3ccccc3)c(=O)n2C)c1 records luciferase activation of -30% or higher.
Result: true

Task: Confirm if luciferase activation reported for the molecule COc1ccc2c(COC(=O)c3cccc(S(=O)(=O)NCC(C)C)c3)cc(=O)oc2c1 is -30% or above.
Result: true

Task: Is reported luciferase activation greater than or equal to -30% here: Cc1cc(C)nc(/N=C(\N)Nc2ccc(OCc3ccccc3)cc2)n1
Result: false

Task: Does luciferase activation meet or surpass -30% for COc1ccc(NC(=O)C(=O)c2cn(CC(=O)N3CCCC3)c3ccccc23)cc1 ?
Result: false

Task: Has CC(=O)N[C@H]1[C@@H](O[C@@H]2OC(C[C@@H](O)C3O[C@@H](n4ccc(=O)[nH]c4=O)[C@H](O)[C@@H]3O)[C@H](O)[C@H](O)[C@H]2NC(=O)/C=C/CCCCCCCCCCC(C)C)O[C@H](CO)[C@@H](O)[C@@H]1O (stereo not given in full) a recorded luciferase activation greater than or equal to -30%?
Result: false

Task: Is it the case that CN(C)CCCN(Cc1cc2ccccc2[nH]c1=O)C(=O)NCc1ccccc1 has luciferase activation reaching or exceeding -30%?
Result: true
